target: α7-5HT3 (Homo sapiens, UniProt P36544, M226I/T225I); assay: agonist potency/activity at unmodified α7-5HT3 chimeric channel; details: agonist activity at unmodified α7-5HT3; read-out: EC50α7-5HT3
Sequence (P36544 with tags, fused parts or gaps T225I/M226I): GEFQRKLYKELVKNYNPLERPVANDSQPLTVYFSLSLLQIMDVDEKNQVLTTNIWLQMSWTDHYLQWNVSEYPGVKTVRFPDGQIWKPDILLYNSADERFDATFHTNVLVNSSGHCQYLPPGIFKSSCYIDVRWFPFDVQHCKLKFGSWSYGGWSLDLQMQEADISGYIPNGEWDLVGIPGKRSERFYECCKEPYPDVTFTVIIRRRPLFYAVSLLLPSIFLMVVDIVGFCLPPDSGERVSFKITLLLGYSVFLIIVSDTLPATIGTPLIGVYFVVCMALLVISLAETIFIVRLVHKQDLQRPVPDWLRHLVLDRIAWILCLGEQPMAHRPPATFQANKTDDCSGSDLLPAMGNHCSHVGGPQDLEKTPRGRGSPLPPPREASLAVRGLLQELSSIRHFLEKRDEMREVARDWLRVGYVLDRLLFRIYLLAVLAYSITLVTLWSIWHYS
quantity_kind: pEC50
// returns pEC50 (minus log10 of molar concentration), number only

Query :: State the recorded pEC50 for this entry: C[N+](C)(C)CCO
Result :: 4.43

---

molecular target: α7-GlyR (Homo sapiens); experiment: agonist potency/activity at unmodified α7-GlyR chimeric channel
Sequence (P36544 with tags, fused parts or gaps): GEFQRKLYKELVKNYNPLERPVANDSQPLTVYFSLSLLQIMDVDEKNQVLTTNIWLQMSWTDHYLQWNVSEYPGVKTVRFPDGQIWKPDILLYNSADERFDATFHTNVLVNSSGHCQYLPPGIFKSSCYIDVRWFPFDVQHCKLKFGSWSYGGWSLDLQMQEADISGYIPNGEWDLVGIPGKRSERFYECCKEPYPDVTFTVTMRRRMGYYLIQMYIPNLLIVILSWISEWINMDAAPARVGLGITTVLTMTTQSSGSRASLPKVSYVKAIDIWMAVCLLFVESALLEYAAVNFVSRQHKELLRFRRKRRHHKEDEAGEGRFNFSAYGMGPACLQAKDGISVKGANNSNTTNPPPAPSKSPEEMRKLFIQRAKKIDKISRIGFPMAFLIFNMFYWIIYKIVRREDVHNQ
quantity_kind: EC50 (µM)
Give your result in µM as a bare value.

Query :: State the recorded EC50 for this entry: C[N+](C)(C)CCO [Choline]
Result :: 103

These entries and their values trace back to patent US20240002463A1.
